Quick reference for IC50 among some molecules
Tested on: EC-GI-10
Experiment: cells
Format: functional, cell-based
Details: Homo sapiens
Description: SANGER: Inhibition of human EC-GI-10 cell growth in a cell viability assay.

input: IC50 lookup needed for COc1cc(Nc2c(C#N)cnc3cc(OCCCN4CCN(C)CC4)c(OC)cc23)c(Cl)cc1Cl , thanks.
output: > 2 µM

input: Can you check CO[C@@]12[C@H](COC(N)=O)C3=C(C(=O)C(C)=C(N)C3=O)N1C[C@@H]1N[C@@H]12 next?
output: 14.9 µM

Attention now turns to another entry.
input: What does the data say about its IC50? Entry: COc1cc(C)c(Sc2cnc(NC(=O)c3ccc(CNC(C)C(C)(C)C)cc3)s2)cc1C(=O)N1CCN(C(C)=O)CC1 (stereo unspecified)
output: > 10.2 µM
